# Assay method text: In vivo pharmacokinetic after oral administration
# Design: species or system SD rats
# Run parameters: SD, rat, plasma, po, 30 mg/kg
Structures can show the parent of a compound that is named as a salt.
Quantity kind: concentration at 1 h (ng/mL)
Field: numeric (ng/mL). Do not append units.

Consider the compound COc1cccc2c1C(=O)c1c(O)c3c(c(O)c1C2=O)C[C@@](O)(C(=O)CO)C[C@@H]3O[C@H]1C[C@H](N)[C@H](O)[C@H](C)O1 [DOX, doxorubicin hydrochloride] and give its measured concentration at 1 h.
160

* * *

# Assay method text: In vivo pharmacokinetic after oral administration
# Design: species or system SD rats
# Run parameters: SD, rat, plasma, po, 30 mg/kg
Structures can show the parent of a compound that is named as a salt.
Quantity kind: AUC
State the result as a value with its unit after it.

Consider the molecule COc1cccc2c1C(=O)c1c(O)c3c(c(O)c1C2=O)C[C@@](O)(C(=O)CO)C[C@@H]3O[C@H]1C[C@H](N)[C@H](O)[C@H](C)O1 [DOX, doxorubicin hydrochloride] and give its measured AUC.
4000 ng·h/mL
